# test.system: Dual specificity tyrosine-phosphorylation-regulated kinase 1B (Homo sapiens) (UniProt Q9Y463);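 also: values are mean percent inhibition of DYRK1B, from the GSK_PKIS set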
# Sequence (Q9Y463 whole entry, looked up): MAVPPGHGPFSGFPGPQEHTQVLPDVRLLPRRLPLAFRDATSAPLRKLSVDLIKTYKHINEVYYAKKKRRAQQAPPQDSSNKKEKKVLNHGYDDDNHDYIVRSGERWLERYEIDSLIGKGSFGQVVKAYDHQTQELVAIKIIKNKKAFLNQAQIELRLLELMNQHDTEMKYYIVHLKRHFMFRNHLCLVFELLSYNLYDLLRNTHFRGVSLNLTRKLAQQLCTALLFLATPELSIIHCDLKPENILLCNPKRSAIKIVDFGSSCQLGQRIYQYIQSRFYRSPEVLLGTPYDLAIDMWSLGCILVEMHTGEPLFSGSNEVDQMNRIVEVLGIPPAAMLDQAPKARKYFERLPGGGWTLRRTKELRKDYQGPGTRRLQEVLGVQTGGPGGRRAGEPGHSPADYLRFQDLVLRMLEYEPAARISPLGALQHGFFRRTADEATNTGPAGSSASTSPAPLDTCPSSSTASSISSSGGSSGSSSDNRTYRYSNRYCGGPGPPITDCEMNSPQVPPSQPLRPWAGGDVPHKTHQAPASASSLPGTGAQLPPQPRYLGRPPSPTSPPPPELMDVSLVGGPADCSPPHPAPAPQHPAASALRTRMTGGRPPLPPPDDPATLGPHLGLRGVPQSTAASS
# details: at 1 µM
measurement.type: inhibition (%)

- molecule: "Cc1cc(-c2ccco2)cc(C)c1/C=C/c1cncc(-c2nn[nH]n2)c1"
  value.observed: 0.15
- molecule: "CCn1c(-c2nonc2N)nc2c(C#CC(C)(C)O)ncc(OC[C@@H]3CCCN3)c21"
  value.observed: -1.07
- molecule: "COc1cc(C=NNc2ncnc3c2cnn3Cc2ccccc2)ccc1O"
  value.observed: 8.92
- molecule: "COc1cccc(-n2ncc3c(N/N=C/c4ccncc4)ncnc32)c1"
  value.observed: 53.9
- molecule: "CCn1c(-c2nonc2N)nc2c(C#CC(C)(C)O)ncc(OCC3CCNCC3)c21"
  value.observed: -0.01
- molecule: "NC(=O)c1sc(-n2cnc3cc(C(F)(F)F)ccc32)cc1OCc1ccccc1Br"
  value.observed: 0.72
- molecule: "Nc1nonc1-c1nc2cnccc2n1C1CCCCC1"
  value.observed: 71.2

---

We begin with a simple list: items and their reported inhibition.
# test.system: Dual specificity mitogen-activated protein kinase kinase 1 (Homo sapiens) (UniProt Q02750);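 also: reported value is a mean percent inhibition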
# Sequence (Q02750 whole entry): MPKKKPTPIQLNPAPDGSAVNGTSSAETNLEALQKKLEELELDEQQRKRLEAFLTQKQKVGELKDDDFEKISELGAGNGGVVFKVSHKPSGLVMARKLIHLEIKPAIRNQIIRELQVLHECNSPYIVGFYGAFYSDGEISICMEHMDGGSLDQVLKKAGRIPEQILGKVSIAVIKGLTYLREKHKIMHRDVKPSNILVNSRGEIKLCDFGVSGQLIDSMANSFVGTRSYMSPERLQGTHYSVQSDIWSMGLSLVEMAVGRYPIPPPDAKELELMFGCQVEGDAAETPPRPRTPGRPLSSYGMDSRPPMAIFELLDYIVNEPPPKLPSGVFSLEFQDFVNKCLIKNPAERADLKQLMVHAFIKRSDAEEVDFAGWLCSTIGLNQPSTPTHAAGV
# details: at 0.1 µM
measurement.type: inhibition (%)

- molecule: "Fc1ccc(-c2ncn(C3CCNCC3)c2-c2ccnc(Oc3ccccc3)n2)cc1"
  value.observed: 1.34
- molecule: "NS(=O)(=O)c1ccc(N/C=C2\\C(=O)Nc3ccc4ncsc4c32)cc1"
  value.observed: 8.75
- molecule: "COc1cccc(COc2cc(-n3cnc4ccccc43)sc2C(N)=O)c1"
  value.observed: 0.36
- molecule: "CCn1c(-c2nonc2N)nc2c(C#CC(C)(C)O)nc(O[C@@H](CN)c3ccccc3)cc21"
  value.observed: -0.01
- molecule: "Cc1cc(-c2ccco2)cc(C)c1/C=C/c1cncc(-c2nn[nH]n2)c1"
  value.observed: 3.02
- molecule: "COc1cccc(-n2ncc3c(N/N=C/c4ccncc4)ncnc32)c1"
  value.observed: 7.89
- molecule: "COc1cc2c(cc1Nc1nc(Nc3ccsc3C(N)=O)c3cc[nH]c3n1)N(C(=O)CN(C)C)CCC2"
  value.observed: -3.96
- molecule: "NS(=O)(=O)c1ccc(-c2ccc3c(NC(=O)C4CC4)n[nH]c3c2)cc1"
  value.observed: 1.7

---

# test.system: Tyrosine-protein kinase Srms (Homo sapiens) (UniProt Q9H3Y6);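 also: reported value is a mean of the inhibition readings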
# Sequence (Q9H3Y6 whole entry): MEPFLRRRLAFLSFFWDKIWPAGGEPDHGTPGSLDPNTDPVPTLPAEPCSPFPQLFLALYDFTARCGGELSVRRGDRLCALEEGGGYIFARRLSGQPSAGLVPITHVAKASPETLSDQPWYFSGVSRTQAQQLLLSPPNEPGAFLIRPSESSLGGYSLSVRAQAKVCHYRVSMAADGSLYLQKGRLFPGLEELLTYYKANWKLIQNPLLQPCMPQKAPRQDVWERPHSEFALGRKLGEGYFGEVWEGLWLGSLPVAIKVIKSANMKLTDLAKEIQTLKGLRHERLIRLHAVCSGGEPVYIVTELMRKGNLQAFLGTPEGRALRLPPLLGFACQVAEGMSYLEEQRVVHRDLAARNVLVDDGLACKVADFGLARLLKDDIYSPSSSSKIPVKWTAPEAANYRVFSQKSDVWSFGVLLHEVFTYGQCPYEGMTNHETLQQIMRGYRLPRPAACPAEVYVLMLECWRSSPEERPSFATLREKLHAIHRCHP
# details: at 0.1 µM
measurement.type: inhibition

- molecule: "NS(=O)(=O)c1ccc(-c2ccc3c(NC(=O)C4CC4)n[nH]c3c2)cc1"
  measurement.type: "inhibition"
  value.observed: "-2.44%"
- molecule: "Nc1nonc1-c1nc2cnccc2n1C1CCCCC1"
  measurement.type: "inhibition"
  value.observed: "1.53%"
- molecule: "CCn1c(-c2nonc2N)nc2c(C#CC(C)(C)O)ncc(OCC3CCNCC3)c21"
  measurement.type: "inhibition"
  value.observed: "0.75%"

---

# test.system: Serine/threonine-protein kinase TBK1 (Homo sapiens) (UniProt Q9UHD2);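 also: values are the mean TBK1 inhibition, taken from the GSK PKIS screening data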
# Sequence (Q9UHD2 whole entry): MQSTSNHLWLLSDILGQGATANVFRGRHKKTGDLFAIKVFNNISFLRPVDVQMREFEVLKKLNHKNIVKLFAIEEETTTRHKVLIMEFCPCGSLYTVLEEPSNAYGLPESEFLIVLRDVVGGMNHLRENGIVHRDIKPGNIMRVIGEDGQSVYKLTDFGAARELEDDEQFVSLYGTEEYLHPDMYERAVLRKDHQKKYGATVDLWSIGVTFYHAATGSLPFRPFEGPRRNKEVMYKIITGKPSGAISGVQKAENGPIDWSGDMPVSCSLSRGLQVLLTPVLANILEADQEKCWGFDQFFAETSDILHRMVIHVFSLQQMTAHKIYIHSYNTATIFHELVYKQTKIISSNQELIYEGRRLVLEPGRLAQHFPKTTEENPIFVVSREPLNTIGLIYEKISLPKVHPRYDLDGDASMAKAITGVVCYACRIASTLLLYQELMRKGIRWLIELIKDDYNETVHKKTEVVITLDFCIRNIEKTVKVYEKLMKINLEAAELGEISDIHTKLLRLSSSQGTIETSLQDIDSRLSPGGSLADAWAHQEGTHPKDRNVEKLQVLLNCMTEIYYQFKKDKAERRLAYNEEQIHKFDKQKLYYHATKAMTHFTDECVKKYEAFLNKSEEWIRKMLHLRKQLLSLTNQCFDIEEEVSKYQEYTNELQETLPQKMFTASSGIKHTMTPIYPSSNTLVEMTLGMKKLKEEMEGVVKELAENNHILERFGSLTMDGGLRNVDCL
# details: at 0.1 µM
We begin with a simple list: items and their reported inhibition.

- molecule: "CCn1c(-c2nonc2N)nc2c(C#CCN)ncc(OCCCN)c21"
  inhibition (%): -0.18
- molecule: "CCn1c(-c2nonc2N)nc2c(C#CC(C)(C)O)nc(O[C@@H](CN)c3ccccc3)cc21"
  inhibition (%): 20.9
- molecule: "CCn1c(-c2nonc2N)nc2c(C#CC(C)(C)O)ncc(OC[C@@H]3CCCN3)c21"
  inhibition (%): 5.1
- molecule: "COc1cc(C=NNc2ncnc3c2cnn3Cc2ccccc2)ccc1O"
  inhibition (%): 0.04
- molecule: "Cc1cc(-c2ccco2)cc(C)c1/C=C/c1cncc(-c2nn[nH]n2)c1"
  inhibition (%): 0.36
- molecule: "NS(=O)(=O)c1ccc(N/C=C2\\C(=O)Nc3ccc4ncsc4c32)cc1"
  inhibition (%): 10.7
- molecule: "NS(=O)(=O)c1ccc(-c2ccc3c(NC(=O)C4CC4)n[nH]c3c2)cc1"
  inhibition (%): 5.3

---

# test.system: Tyrosine-protein kinase ABL1 (Homo sapiens)
# details: at 1 µM
measurement.type: inhibition (%)

- molecule: "CCn1c(-c2nonc2N)nc2c(C#CC(C)(C)O)ncc(OCC3CCNCC3)c21"
  unit.symbol: "%"
  value.observed: 2.09
- molecule: "NS(=O)(=O)c1ccc(-c2ccc3c(NC(=O)C4CC4)n[nH]c3c2)cc1"
  unit.symbol: "%"
  value.observed: 14.2
- molecule: "COc1cccc(-n2ncc3c(N/N=C/c4ccncc4)ncnc32)c1"
  unit.symbol: "%"
  value.observed: 89
- molecule: "CCn1c(-c2nonc2N)nc2c(C#CCN)ncc(OCCCN)c21"
  unit.symbol: "%"
  value.observed: 2.03
- molecule: "CCn1c(-c2nonc2N)nc2c(C#CC(C)(C)O)nc(O[C@@H](CN)c3ccccc3)cc21"
  unit.symbol: "%"
  value.observed: 5.55
- molecule: "COc1cccc(COc2cc(-n3cnc4ccccc43)sc2C(N)=O)c1"
  unit.symbol: "%"
  value.observed: 0.81

---

# test.system: Inhibitor of nuclear factor kappa-B kinase subunit alpha (Homo sapiens);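 also: mean inhibition of IKKA, from the GSK PKIS data set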
# details: at 1 µM
We begin with a simple list: items and their reported inhibition.

- molecule: "COc1cccc(COc2cc(-n3cnc4ccccc43)sc2C(N)=O)c1"
  unit.symbol: "%"
  inhibition: 7.88
- molecule: "COc1cc(C=NNc2ncnc3c2cnn3Cc2ccccc2)ccc1O"
  unit.symbol: "%"
  inhibition: -2.41
- molecule: "CCn1c(-c2nonc2N)nc2c(C#CC(C)(C)O)nc(O[C@@H](CN)c3ccccc3)cc21"
  unit.symbol: "%"
  inhibition: -2.27
- molecule: "Cc1cc(-c2ccco2)cc(C)c1/C=C/c1cncc(-c2nn[nH]n2)c1"
  unit.symbol: "%"
  inhibition: 2.26
- molecule: "Fc1ccc(-c2ncn(C3CCNCC3)c2-c2ccnc(Oc3ccccc3)n2)cc1"
  unit.symbol: "%"
  inhibition: 1.08

---

# test.system: Hepatocyte growth factor receptor (Homo sapiens);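 also: reported values are means of MET inhibition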
# details: at 0.1 µM
We begin with a simple list: items and their reported inhibition.

- molecule: "COc1cc2c(cc1Nc1nc(Nc3ccsc3C(N)=O)c3cc[nH]c3n1)N(C(=O)CN(C)C)CCC2"
  inhibition (%): 6.76
- molecule: "COc1cccc(-n2ncc3c(N/N=C/c4ccncc4)ncnc32)c1"
  inhibition (%): 18.9
- molecule: "CCn1c(-c2nonc2N)nc2c(C#CC(C)(C)O)ncc(OCC3CCNCC3)c21"
  inhibition (%): 1.64
- molecule: "Cc1cc(-c2ccco2)cc(C)c1/C=C/c1cncc(-c2nn[nH]n2)c1"
  inhibition (%): 4.92
- molecule: "NS(=O)(=O)c1ccc(-c2ccc3c(NC(=O)C4CC4)n[nH]c3c2)cc1"
  inhibition (%): -4.19
- molecule: "Nc1nonc1-c1nc2cnccc2n1C1CCCCC1"
  inhibition (%): -2.89
- molecule: "COc1cc(C=NNc2ncnc3c2cnn3Cc2ccccc2)ccc1O"
  inhibition (%): -3.62
- molecule: "NC(=O)c1sc(-n2cnc3cc(C(F)(F)F)ccc32)cc1OCc1ccccc1Br"
  inhibition (%): -0.38
- molecule: "COc1cccc(COc2cc(-n3cnc4ccccc43)sc2C(N)=O)c1"
  inhibition (%): 4.83
- molecule: "NS(=O)(=O)c1ccc(N/C=C2\\C(=O)Nc3ccc4ncsc4c32)cc1"
  inhibition (%): 14.9

---

# test.system: 5'-AMP-activated protein kinase catalytic subunit alpha-2 (Homo sapiens) (UniProt P54646)
# Sequence (P54646 whole entry, looked up): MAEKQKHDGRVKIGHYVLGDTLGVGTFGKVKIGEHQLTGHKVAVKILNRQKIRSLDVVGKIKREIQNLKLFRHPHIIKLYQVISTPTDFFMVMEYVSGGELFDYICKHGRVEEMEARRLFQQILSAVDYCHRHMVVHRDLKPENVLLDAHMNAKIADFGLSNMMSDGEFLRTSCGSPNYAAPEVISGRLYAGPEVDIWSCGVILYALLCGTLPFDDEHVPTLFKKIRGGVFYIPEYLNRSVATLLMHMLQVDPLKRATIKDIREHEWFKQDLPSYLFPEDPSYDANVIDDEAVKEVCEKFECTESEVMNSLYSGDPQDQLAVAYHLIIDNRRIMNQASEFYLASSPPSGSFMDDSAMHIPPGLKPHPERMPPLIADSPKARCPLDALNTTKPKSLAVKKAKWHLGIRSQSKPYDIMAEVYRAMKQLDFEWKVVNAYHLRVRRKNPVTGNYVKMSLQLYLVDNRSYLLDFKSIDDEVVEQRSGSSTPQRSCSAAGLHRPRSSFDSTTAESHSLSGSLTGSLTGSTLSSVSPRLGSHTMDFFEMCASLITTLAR
# details: at 1 µM
# Description: GSK_PKIS: AMPKA2 (A2B1G1) mean inhibition at 1 uM [Nanosyn]
We begin with a simple list: items and their reported inhibition.

- molecule: "COc1cc2c(cc1Nc1nc(Nc3ccsc3C(N)=O)c3cc[nH]c3n1)N(C(=O)CN(C)C)CCC2"
  inhibition / %: 2.09
- molecule: "Fc1ccc(-c2ncn(C3CCNCC3)c2-c2ccnc(Oc3ccccc3)n2)cc1"
  inhibition / %: -1.95
- molecule: "COc1cccc(COc2cc(-n3cnc4ccccc43)sc2C(N)=O)c1"
  inhibition / %: 1.39
- molecule: "NS(=O)(=O)c1ccc(N/C=C2\\C(=O)Nc3ccc4ncsc4c32)cc1"
  inhibition / %: 42.8
- molecule: "CCn1c(-c2nonc2N)nc2c(C#CC(C)(C)O)ncc(OCC3CCNCC3)c21"
  inhibition / %: 16.1
- molecule: "CCn1c(-c2nonc2N)nc2c(C#CC(C)(C)O)nc(O[C@@H](CN)c3ccccc3)cc21"
  inhibition / %: 68.1
- molecule: "NC(=O)c1sc(-n2cnc3cc(C(F)(F)F)ccc32)cc1OCc1ccccc1Br"
  inhibition / %: 4.05
- molecule: "CCn1c(-c2nonc2N)nc2c(C#CCN)ncc(OCCCN)c21"
  inhibition / %: 2.16
- molecule: "COc1cccc(-n2ncc3c(N/N=C/c4ccncc4)ncnc32)c1"
  inhibition / %: 7.87

---

We begin with a simple list: items and their reported inhibition.
# System: Tyrosine-protein kinase ABL1 (Homo sapiens), P00519 [Y253F]
# details: at 0.1 µM

- molecule: "Fc1ccc(-c2ncn(C3CCNCC3)c2-c2ccnc(Oc3ccccc3)n2)cc1"
  inhibition (%): 1.35
- molecule: "COc1cc2c(cc1Nc1nc(Nc3ccsc3C(N)=O)c3cc[nH]c3n1)N(C(=O)CN(C)C)CCC2"
  inhibition (%): 1.77
- molecule: "Cc1cc(-c2ccco2)cc(C)c1/C=C/c1cncc(-c2nn[nH]n2)c1"
  inhibition (%): 1.92
- molecule: "NS(=O)(=O)c1ccc(-c2ccc3c(NC(=O)C4CC4)n[nH]c3c2)cc1"
  inhibition (%): 4.41
- molecule: "CCn1c(-c2nonc2N)nc2c(C#CCN)ncc(OCCCN)c21"
  inhibition (%): -2.47
- molecule: "COc1cc(C=NNc2ncnc3c2cnn3Cc2ccccc2)ccc1O"
  inhibition (%): 52.2
- molecule: "NS(=O)(=O)c1ccc(N/C=C2\\C(=O)Nc3ccc4ncsc4c32)cc1"
  inhibition (%): 5.62
- molecule: "NC(=O)c1sc(-n2cnc3cc(C(F)(F)F)ccc32)cc1OCc1ccccc1Br"
  inhibition (%): 4.14
- molecule: "CCn1c(-c2nonc2N)nc2c(C#CC(C)(C)O)ncc(OCC3CCNCC3)c21"
  inhibition (%): 2.44
- molecule: "CCn1c(-c2nonc2N)nc2c(C#CC(C)(C)O)ncc(OC[C@@H]3CCCN3)c21"
  inhibition (%): 0.65
